test_protocol: μFLUX dissolution-permeation flux experiment
test_context: bile micelles in FaSSIF, pH 6.5, fu, FaSSIF; calculated by Eq. (9) (Sdissolv,u/Sdissolv)
property: fraction unbound

As a guide, the following entries are already answered.
Request: What measured fraction unbound goes with `COc1ccccc1Oc1c(NS(=O)(=O)c2ccc(C(C)(C)C)cc2)nc(-c2ncccn2)nc1OCCO` ?
Result: 0.73

Request: Try this molecule next: `Cc1ccc(-c2cc(C(F)(F)F)nn2-c2ccc(S(N)(=O)=O)cc2)cc1`
Result: 0.069

Request: Same lookup for `CCc1c(Cl)c(O)c(Cl)c(O)c1C(=O)O[C@H]1[C@H](O)[C@H](OC)[C@H](OC/C2=C\C=C\C[C@H](O)/C(C)=C/[C@H](CC)[C@@H](O[C@@H]3OC(C)(C)[C@@H](OC(=O)C(C)C)[C@H](O)[C@@H]3O)/C(C)=C/C(C)=C/C[C@@H]([C@@H](C)O)OC2=O)O[C@@H]1C` , please.
Result: 0.6

Request: Another molecule: `C#C[C@]1(O)CC[C@H]2[C@@H]3CCC4=Cc5oncc5C[C@]4(C)[C@H]3CC[C@@]21C`
Result: 0.011

***
Request: Would you kindly share the measured fraction unbound for `O=C(Nc1cccc2c(=O)cc(-c3nnn[nH]3)oc12)c1ccc(OCCCCc2ccccc2)cc1` ?
Result: 0.038

###

test_protocol: μFLUX dissolution-permeation flux experiment
test_context: bile micelles in FeSSIF, pH 6.5, fu, FeSSIF; calculated by Eq. (9) (Sdissolv,u/Sdissolv)
Known fraction unbound of a selection of compounds

Request: For the compound `O=C(Nc1cccc2c(=O)cc(-c3nnn[nH]3)oc12)c1ccc(OCCCCc2ccccc2)cc1` , what fraction unbound is on record?
Result: 0.004

Request: Consider next the compound `C#C[C@]1(O)CC[C@H]2[C@@H]3CCC4=Cc5oncc5C[C@]4(C)[C@H]3CC[C@@]21C` in the same way.
Result: 0.0043

Request: Record: `COc1ccccc1Oc1c(NS(=O)(=O)c2ccc(C(C)(C)C)cc2)nc(-c2ncccn2)nc1OCCO`
Result: 0.34

Note: attention shifts to another entry.
Request: Data request, read-out fraction unbound, for `CCc1c(Cl)c(O)c(Cl)c(O)c1C(=O)O[C@H]1[C@H](O)[C@H](OC)[C@H](OC/C2=C\C=C\C[C@H](O)/C(C)=C/[C@H](CC)[C@@H](O[C@@H]3OC(C)(C)[C@@H](OC(=O)C(C)C)[C@H](O)[C@@H]3O)/C(C)=C/C(C)=C/C[C@@H]([C@@H](C)O)OC2=O)O[C@@H]1C`
Result: 0.26

###

test_protocol: Equilibrium solubility measurement (shake-flask) in blank FaSSIF, FaSSIF, FeSSIF
Format: physicochemical
test_context: FaSSIF, thermodynamic from solid; pH 6.5, 37°C, 72 h, mean ± S.D., N = 3; read-out: Solubility, FaSSIF
property: solubility at 72 h

Request: Requested read-out: solubility at 72 h. Entry: `CCc1c(Cl)c(O)c(Cl)c(O)c1C(=O)O[C@H]1[C@H](O)[C@H](OC)[C@H](OC/C2=C\C=C\C[C@H](O)/C(C)=C/[C@H](CC)[C@@H](O[C@@H]3OC(C)(C)[C@@H](OC(=O)C(C)C)[C@H](O)[C@@H]3O)/C(C)=C/C(C)=C/C[C@@H]([C@@H](C)O)OC2=O)O[C@@H]1C`
Result: 77 µg/mL

Request: Field entry: `CO[C@H]1/C=C/O[C@@]2(C)Oc3c(C)c(O)c4c(O)c(c5c(nc6cc(C)ccn65)c4c3C2=O)NC(=O)/C(C)=C\C=C\[C@H](C)[C@H](O)[C@@H](C)[C@@H](O)[C@@H](C)[C@H](OC(C)=O)[C@@H]1C`
Result: 3.4 µg/mL

API: the following record is the query input.
Request: Bench note: what solubility at 72 h did `COc1ccccc1Oc1c(NS(=O)(=O)c2ccc(C(C)(C)C)cc2)nc(-c2ncccn2)nc1OCCO` show?
Result: 41 µg/mL

###

test_protocol: FaRLS diagnosis by Fa equation and Peff equation (Table S3, dose number)
test_context: clinical dose; Sdissolv in FeSSIF
Mark t only when Dose number, Fed stays strictly below 9. Values equal to the cut-off are f.

Please review the entries below; each comes with its answer.
Request: Answer whether the molecule CCc1c(Cl)c(O)c(Cl)c(O)c1C(=O)O[C@H]1[C@H](O)[C@H](OC)[C@H](OC/C2=C\C=C\C[C@H](O)/C(C)=C/[C@H](CC)[C@@H](O[C@@H]3OC(C)(C)[C@@H](OC(=O)C(C)C)[C@H](O)[C@@H]3O)/C(C)=C/C(C)=C/C[C@@H]([C@@H](C)O)OC2=O)O[C@@H]1C [Fidaxomicin] has Dose number, Fed strictly less than 9
Result: t

Request: Try this molecule next: C#C[C@]1(O)CC[C@H]2[C@@H]3CCC4=Cc5oncc5C[C@]4(C)[C@H]3CC[C@@]21C [Danazol]
Result: f

Request: Continue with O=C(Nc1cccc2c(=O)cc(-c3nnn[nH]3)oc12)c1ccc(OCCCCc2ccccc2)cc1 [Pranlukast]
Result: t

Further cases:
Request: Quick check: does Cc1ccc(-c2cc(C(F)(F)F)nn2-c2ccc(S(N)(=O)=O)cc2)cc1 [Celecoxib] have Dose number, Fed under 9?
Result: f

###

Listing of entries alongside the reported logDoct,pH 6.5.
test_protocol: Octanol-water partition/distribution coefficient (logPoct, logDoct)
Type: physicochemical
test_context: calculated from logPoct and pKa using the Henderson-Hasselbalch equation
Give the value as a plain number.

Request: Given the molecule `CO[C@H]1/C=C/O[C@@]2(C)Oc3c(C)c(O)c4c(O)c(c5c(nc6cc(C)ccn65)c4c3C2=O)NC(=O)/C(C)=C\C=C\[C@H](C)[C@H](O)[C@@H](C)[C@@H](O)[C@@H](C)[C@H](OC(C)=O)[C@@H]1C` , what is its reported logDoct,pH 6.5?
Result: 2.6

Request: Similarly, `CCc1c(Cl)c(O)c(Cl)c(O)c1C(=O)O[C@H]1[C@H](O)[C@H](OC)[C@H](OC/C2=C\C=C\C[C@H](O)/C(C)=C/[C@H](CC)[C@@H](O[C@@H]3OC(C)(C)[C@@H](OC(=O)C(C)C)[C@H](O)[C@@H]3O)/C(C)=C/C(C)=C/C[C@@H]([C@@H](C)O)OC2=O)O[C@@H]1C` ?
Result: 2.3

Request: Cool, now `Cc1ccc(-c2cc(C(F)(F)F)nn2-c2ccc(S(N)(=O)=O)cc2)cc1`
Result: 3.5

Request: Next up: `C#C[C@]1(O)CC[C@H]2[C@@H]3CCC4=Cc5oncc5C[C@]4(C)[C@H]3CC[C@@]21C`
Result: 4.5

New cases:
Request: For `COc1ccccc1Oc1c(NS(=O)(=O)c2ccc(C(C)(C)C)cc2)nc(-c2ncccn2)nc1OCCO` , what is its reported logDoct,pH 6.5?
Result: 2.2

###

Measured JμFLUX, listed per entry.
test_protocol: μFLUX dissolution-permeation flux experiment
test_context: donor FeSSIF; average of 90 to 120 min (pranlukast 210 to 240 min)

Request: Value lookup for JμFLUX; key = `COc1ccccc1Oc1c(NS(=O)(=O)c2ccc(C(C)(C)C)cc2)nc(-c2ncccn2)nc1OCCO`
Result: 6.1 ± 0.2 10–^3 μg/cm^2/s

Request: And what about the compound `O=C(Nc1cccc2c(=O)cc(-c3nnn[nH]3)oc12)c1ccc(OCCCCc2ccccc2)cc1` ?
Result: 0.47 ± 0.16 10–^3 μg/cm^2/s

---
Request: Request the reported JμFLUX associated with `Cc1ccc(-c2cc(C(F)(F)F)nn2-c2ccc(S(N)(=O)=O)cc2)cc1`
Result: 11 ± 1 10–^3 μg/cm^2/s

Request: Can you handle `CCc1c(Cl)c(O)c(Cl)c(O)c1C(=O)O[C@H]1[C@H](O)[C@H](OC)[C@H](OC/C2=C\C=C\C[C@H](O)/C(C)=C/[C@H](CC)[C@@H](O[C@@H]3OC(C)(C)[C@@H](OC(=O)C(C)C)[C@H](O)[C@@H]3O)/C(C)=C/C(C)=C/C[C@@H]([C@@H](C)O)OC2=O)O[C@@H]1C` next?
Result: 6.0 ± 0.7 10–^3 μg/cm^2/s

###

Measured Ratio (fed/fasted) CD,final, listed per entry.
test_protocol: μFLUX dissolution-permeation flux experiment
test_context: FeSSIF/FaSSIF; μFLUX dose 1/10 of the clinical dose

Sample answers from the record:
Request: Ratio (fed/fasted) CD,final lookup needed for `Cc1ccc(-c2cc(C(F)(F)F)nn2-c2ccc(S(N)(=O)=O)cc2)cc1` , thanks.
Result: 1.7

Request: Would you kindly repeat that for `CCc1c(Cl)c(O)c(Cl)c(O)c1C(=O)O[C@H]1[C@H](O)[C@H](OC)[C@H](OC/C2=C\C=C\C[C@H](O)/C(C)=C/[C@H](CC)[C@@H](O[C@@H]3OC(C)(C)[C@@H](OC(=O)C(C)C)[C@H](O)[C@@H]3O)/C(C)=C/C(C)=C/C[C@@H]([C@@H](C)O)OC2=O)O[C@@H]1C` ?
Result: 3.1

Request: Now the molecule `O=C(Nc1cccc2c(=O)cc(-c3nnn[nH]3)oc12)c1ccc(OCCCCc2ccccc2)cc1`
Result: 20

More entries:
Request: Given `COc1ccccc1Oc1c(NS(=O)(=O)c2ccc(C(C)(C)C)cc2)nc(-c2ncccn2)nc1OCCO` , state its recorded Ratio (fed/fasted) CD,final.
Result: 1.9
